# assay_remarks: Cytotoxicity against human HuH7 cells after 24 hrs
# Format: cell-based, Huh-7
assay_endpoint: CC50 at 24 h

Request: Sample `S=C(NCc1ccccc1)Nc1ccc2c(c1)Cc1cc(Br)ccc1-2` — what was its CC50 at 24 h?
Response: > 50 µM

Request: Then what about the compound `NC(=S)Nc1ccc2c(c1)N1CCN=C1S2` ?
Response: > 50 µM

Request: And for `NC(=S)Nc1ccc2nn[nH]c2c1` ?
Response: > 50 µM

Request: Now give it for `CCn1c2ccccc2c2cc(NC(N)=S)ccc21` too.
Response: > 50 µM

Request: Proceed to `CCN(CC)c1ccc2c(c1)Cc1cc(NC(N)=S)ccc1-2`
Response: > 50 µM

Request: Also need `S=C(Nc1ccccc1)Nc1ccc2c(c1)Cc1cc(Br)ccc1-2` , thanks.
Response: 46.2 µM

Request: Likewise for `NC(=S)Nc1ccc2c(c1)Cc1cc(NCc3ccccc3)ccc1-2` ?
Response: > 50 µM

Request: Try this compound too: `CNC(=S)Nc1ccc2c(c1)Cc1cc(Br)ccc1-2`
Response: > 50 µM

Request: Ok, now `CCCCN(CCCC)c1ccc2c(c1)Cc1cc(NC(N)=S)ccc1-2`
Response: 40.7 µM

Request: Quick one: `NC(=S)Nc1ccc2c(c1)Cc1ccccc1-2`
Response: > 50 µM

Request: Again, but for `S=C(Nc1cccnc1)Nc1ccc2c(c1)Cc1cc(Br)ccc1-2`
Response: 19.7 µM

Request: Try this compound next: `NC(=S)Nc1ccc2cn[nH]c2c1`
Response: > 50 µM

---

# assay_remarks: Oral bioavailability in Sprague-Dawley rat at 25 mg/kg
# Assay type: ADME, organism-based
# particulars: in vivo
Please provide measured bioavailability for the entries that follow.
Just the number please, in %, no unit attached.

Request: Looking for the measured bioavailability of `NC(=S)Nc1ccc2c(c1)C(=O)c1cc(Br)ccc1-2` , can you help?
Response: 1.3

Request: Try this compound next: `NC(=S)Nc1ccc2c(c1)Cc1cc(Br)ccc1-2`
Response: 1.2

---

Provide the recorded AUC for the entries that follow.
# assay_remarks: AUC in Sprague-Dawley rat at 25 mg/kg, po
# Type: ADME, organism-based
# Set-up: dose 25 mg/kg, route oral
# particulars: plasma
Answer format reminder: number followed by unit.

Request: Would you mind telling me what AUC value was observed for `NC(=S)Nc1ccc2c(c1)C(=O)c1cc(Br)ccc1-2` ?
Response: 43 ng·h/mL

Request: Proceed to `NC(=S)Nc1ccc2c(c1)Cc1cc(Br)ccc1-2`
Response: 294 ng·h/mL

---

Record form. Attribute: CC50 at 24 h. Fill in for each entry.
# assay_remarks: Cytotoxicity against human HuH7 cells after 24 hrs
# Assay type: cell-based, Huh-7

Request: Suppose we examine the compound `NC(=S)Nc1ccc2c(c1)C(=O)c1cc(Br)ccc1-2` ; what CC50 at 24 h value has been reported?
Response: > 50 µM

Request: // repeat for `NC(=S)Nc1ccc2c(c1)Cc1cc(Br)ccc1-2` and report
Response: > 50 µM

Request: Okay, and `NC(=O)Nc1ccc2c(c1)Cc1cc(Br)ccc1-2` ?
Response: > 50 µM

Request: // same read-out, input: `CCCN(CCC)c1ccc2c(c1)Cc1cc(NC(N)=S)ccc1-2`
Response: 19.5 µM

Request: Likewise for `CCCCNc1ccc2c(c1)Cc1cc(NC(N)=S)ccc1-2` ?
Response: > 50 µM
